These entries and their values trace back to the CombiSolv-Exp solvation set (Vermeire and Green 2021).

Assay method text: solvent given as SMILES
Experimental conditions: in Clc1ccccc1
Output schema: class label derived from solvation free energy, 298 K. Mapping: low range (below -6 kcal/mol), mid range (-6 kcal/mol to below -4 kcal/mol), high range (-4 kcal/mol or more)

>>> class_name("CC#N")
"high range"
>>> class_name("CCI")
"mid range"
>>> class_name("O=C(O)Cc1ccccc1Nc1c(Cl)cccc1Cl")
"low range"
>>> class_name("CC(C)=O")
"high range"
>>> class_name("c1ccc2cc3ccccc3cc2c1")
"low range"
>>> class_name("c1ccc(-c2ccccc2)cc1")
"low range"
>>> class_name("CC(C)C(C)C(C)C")
"mid range"
>>> class_name("CCC(C)O (stereo not given)")
"mid range"

---

Assay method text: solvent given as SMILES
Experimental conditions: in CNC(C)=O
Measurement label: solvation free energy, 298 K (kcal/mol)

>>> reading("C=CC(C)C")
-2.14
>>> reading("C1CCOC1")
-3.87
>>> reading("CCC(C)(C)OC")
-3.75
>>> reading("CC=C(C)C")
-2.54

---

Assay method text: solvent given as SMILES
Experimental conditions: in [2H]O[2H]
Measurement label: solvation free energy, 298 K (kcal/mol)

>>> reading("C1CCOCC1")
-3.08
>>> reading("C1CCOC1")
-3.5
>>> reading("CCCCC(C)=O")
-3.24
>>> reading("C[N+](=O)[O-]")
-4.01
>>> reading("CC(=O)OCC(C)C")
-2.47
>>> reading("CCOCC")
-1.96
>>> reading("CCCOC=O")
-2.55
>>> reading("CCCCl")
-0.74
>>> reading("CC#N")
-4.1
>>> reading("CC(=O)C(C)C")
-3.22
>>> reading("CCCCC#N")
-3.42
>>> reading("CC(C)=O")
-3.82
>>> reading("N#Cc1ccccc1")
-3.82
>>> reading("CCOC(C)=O")
-3.02
>>> reading("CCCCCC=O")
-2.75
>>> reading("BrCBr")
-2.03
>>> reading("c1ccncc1")
-4.52
>>> reading("CCCCCCO")
-4.57
>>> reading("CC(Cl)(Cl)Cl")
-0.57
>>> reading("CCCCCOC(C)=O")
-2.55
>>> reading("CCO")
-5.08
>>> reading("CN(C)C=O")
-7.47
>>> reading("CC(=O)OC(C)C")
-2.62
>>> reading("CC(=O)N(C)C")
-7.78

---

Assay method text: solvent given as SMILES
Experimental conditions: in CCNC(C)=O
Response field label: string, one of MET (solvation free energy, 298 K strictly below -3 kcal/mol) or NOT MET.

>>> class_name("C=CC(C)C")
"NOT MET"
>>> class_name("C=COC(C)=O")
"MET"
>>> class_name("CCCCC")
"NOT MET"
>>> class_name("C1CCOC1")
"MET"
>>> class_name("CCC(C)(C)OC")
"MET"
>>> class_name("CC(C)=O")
"MET"
>>> class_name("CCO")
"MET"
>>> class_name("CC=C(C)C")
"NOT MET"
>>> class_name("CCCCCCCC")
"MET"
>>> class_name("CCCCCCC")
"MET"
>>> class_name("CCOCC")
"NOT MET"
